Known logP of a selection of molecules
The answer should be a number; do not append a unit.

* Clc1ccccc1C(c1ccccc1)(c1ccccc1)n1ccnc1 | 4.75

Now take the following molecule into account.
logP for `CS(=O)(=O)c1ccc([C@@H](O)[C@@H](CO)NC(=O)C(Cl)Cl)cc1` is 0.15

====

# Assay Remarks: method code SF-GLC, from DOI: 10.1556/jpc.23.2010.3.6
Measured Metric: logP

Record summary for `CCCCCCCCCCCCCCCCO` : reported logP = 7

====

Measured Metric: logP
Format: numeric value only, no unit, no commentary.

Notebook: `CO[C@@H](CC[C@H](C)[C@H]1O[C@@]23CC(OC(=O)C[C@H]([C@@H](C)O)OC(=O)C[C@](O)(O2)[C@H](C)CC3(C)C)[C@@H]1C)c1cc(O)ccc1Br` , logP read as 5.4

====

Catalogue of logD values
# Assay Remarks: method code SF, from DOI: 10.1016/s0960-894x(04)00268-9, PMID: 15109667
# Experimental Context: pH 7.4
Write no unit; give the number alone.

- CC(=O)OC(CC#CCS(=O)(=O)c1ccc([N+](=O)[O-])cc1)Cn1ccnc1[N+](=O)[O-] (configuration not stated): 1.18

Now turn to the next molecule.
Per the record, CC(=O)OC(CC#CCS(=O)(=O)c1ccccc1)Cn1ccnc1[N+](=O)[O-] (configuration not stated) has logD of 1.35

====

# Assay Remarks: method code SF-RC, from DOI: 10.1016/0048-3575(88)90037-5
Measured Metric: logP
Hey, just send me the number, nothing else.

Memo: `CC(C)Nc1nc(Cl)nc(NCCO)n1` , reported logP: 0.78

====

Measured Metric: logP

Value of measured logP for the entry `CC(C)c1cccc(C(C)C)c1O` : 3.63

====

# Assay Remarks: method code SF-AS, from Korenman, Y.; Pazynin, T. (1972). Distribution of nitrosonaphthols between organic solvents and water. J. anal. chem. USSR, 27(4)723-725.
# Experimental Context: pH 2.0
Measured Metric: logD
Write the number on its own, no unit after it.

Please fill in: logD reported for `O=Nc1ccc2ccccc2c1O` = 2.57

====

Measured Metric: logP
The response must contain the number and no unit.

- CC1=C(C)C(O)N(c2cccc(N)c2)C1=O (stereo not drawn): 0.51
- CC1=C(C)C(O)N(c2ccc(C(F)(F)F)cc2)C1=O (stereo not drawn): 3.13

Per the record, CC1=C(C)C(O)N(c2ccc(C(F)(F)F)c(Cl)c2)C1=O (stereo not drawn) has logP of 3.53

====

# Assay Remarks: method code SF-CR+AS, from DOI: 10.1016/s0003-2670(00)84151-3
Examples of compounds with documented logP follow.
Answer as a number with no unit attached.

Observe how each entry below is paired with its result.
• NC(=S)c1ccc([N+](=O)[O-])cc1 = 1.75
• Cc1ccc(C(N)=S)cc1 = 2.01
• NC(=S)c1ccc(Cl)cc1 = 2.4

Next compound, logP to be filled in.
Memo: `COc1ccc(C(N)=S)cc1` , reported logP: 1.63

====

Measured Metric: logP
Respond using a number only.

// recorded logP for Cc1ccccc1Nc1nc2ccc(C(=O)NC(CCCCNC(=O)C=Cc3cccnc3)C(=O)NC(CCCC(=O)O)C(=O)NC3(C(N)=O)CCCCC3)cc2[nH]1 (stereo unspecified) : 1.88
